Test system: Ba/F3-EGFR-L858R C797S
Experiment: Ba/F3 cell survival assay, EGFR L858R C797S
Format: cell-based
Details: 48 h, read-out: BA/F3 (EGFR L858R C797S) IC50
Measured pIC50 values are reported for all entries that follow.
Units for pIC50: none; it is -log10 of a concentration expressed in mol/L.

Use the examples below as a reference point.
Query block: Return reported pIC50; argument: COc1c(Cl)cccc1Nc1c(-c2ccncc2OC[C@@H]2CCO2)[nH]c2c1C(=O)NCC2 [Example 2]
Result block: 8.82

Query block: Look up pIC50: COc1c(Cl)cccc1Nc1c(-c2ccncc2OCC2(C)CCO2)[nH]c2c1C(=O)NCC2 (single isomer, unassigned; (+)) [Example 48]
Result block: 8.89

Query block: What measured pIC50 goes with COc1c(Cl)cccc1Nc1c(-c2ccncc2OCCC2CCO2)[nH]c2c1C(=O)NCC2 (single isomer, unassigned; (-)) [Example 26] ?
Result block: 9.00

Now look at this one.
Query block: Looking for the measured pIC50 of COc1c(Cl)cccc1Nc1c(-c2ccncc2OCC2OCC2(C)C)[nH]c2c1C(=O)NCC2 (single isomer, unassigned; (+)) [Example 50] , can you help?
Result block: 8.53

====

Molecular target: human Bub1 (Homo sapiens (Human))
Assay: Bub1 high ATP kinase assay (TR-FRET)
Type: biochemical
Settings: read-out: Bub1 high ATP (2 mM) IC50; 2 mM ATP
pIC50: −log10 of the molar value.
Measured pIC50 values are reported for all entries that follow.

// worked examples, pIC50 included
Query block: So what does the record say about pIC50 for O=C1NCCc2[nH]c(-c3ccncc3OCC3COC3)c(Nc3cccc(F)c3Cl)c21 ?
Result block: 4.86

Query block: What pIC50 value was documented for this molecule, COc1c(Cl)cccc1Nc1c(-c2ccncc2OCC2OCC2(C)C)[nH]c2c1C(=O)NCC2 (racemic) [Example 49] ?
Result block: < 4.70

Query block: Query (molecule): Cc1c(F)cccc1Nc1c(-c2ccncc2OCC2(C)CCO2)[nH]c2c1C(=O)NCC2 (racemic) [Example 83] ; field requested: pIC50
Result block: < 4.70

Query block: Name the reported pIC50 value associated with the molecule CCC1(COc2cnccc2-c2[nH]c3c(c2Nc2cccc(Cl)c2C)C(=O)NCC3)COC1
Result block: < 5.24

Query block: Which pIC50 value belongs to O=C1NCCc2[nH]c(-c3ccncc3OCC3CCO3)c(Nc3cccc(Cl)c3Cl)c21 (single isomer, unassigned; (-)) [Example 12] ?
Result block: 4.95

Query block: # query: pIC50 of entry COc1c(F)cccc1Nc1c(-c2ccncc2OCCC2CCO2)[nH]c2c1C(=O)NCC2 (racemic)
Result block: 5.46

Field: next molecule
Query block: If you can, please state the reported pIC50 value of COc1c(Nc2c(-c3ccncc3OCC3CCO3)[nH]c3c2C(=O)NCC3)ccc(F)c1Cl (racemic) [Example 13] .
Result block: < 4.70

====

Overview of recorded IC50 for various molecules
Test system: Ba/F3-EGFR-insSVD
Assay: Ba/F3 cell survival assay, EGFR-insSVD
Format: cell-based
Conditions: Mus musculus, BaF3, 48 h, read-out: BA/F3 (insSVD) IC50, cell viability, Cell Titer-Glo, 48 h, with 10 ng/mL EGF, without IL-3
State just the number; it will be interpreted in µM.

Previously resolved entries follow.
Query block: Find the measured IC50: item COc1c(F)cccc1Nc1c(-c2ccncc2OCC2(C)CCO2)[nH]c2c1C(=O)NCC2 (racemic) [Example 19] , target or system Ba/F3-EGFR-insSVD.
Result block: 0.0667

Query block: # get_value(readout= IC50, system= Ba/F3-EGFR-insSVD) for COc1c(F)cccc1Nc1c(-c2ccncc2OCC2COC2)[nH]c2c1C(=O)NCC2 [Example 18]
Result block: 0.0801

New cases:
Query block: Hi! What's the reported IC50 for COc1c(Cl)cccc1Nc1c(-c2ccncc2OC[C@@H]2CCN2C)[nH]c2c1C(=O)NCC2 [Example 27] on Ba/F3-EGFR-insSVD?
Result block: 0.0365

====

Target: human Bub1 (Homo sapiens (Human))
Experiment: Bub1 high ATP kinase assay (TR-FRET)
Assay type: biochemical
Settings: Bub1 high ATP (2 mM) IC50, 2 mM ATP
MEASUREMENT_NAME: IC50

Query block: Value lookup for IC50; key = CC1(C)COC1COc1cnccc1-c1[nH]c2c(c1Nc1cccc(Cl)c1OC(F)F)C(=O)NCC2 (single isomer, unassigned)
Result block: > 20 µM

Query block: Dear colleague, I am looking for the recorded IC50 of the following molecule: COc1c(F)cccc1Nc1c(-c2ccncc2OCCC2CCO2)[nH]c2c1C(=O)NCC2 (single isomer, unassigned) [Example 44]
Result block: > 20 µM

---
Query block: Look at this molecule and give its reported IC50. Cc1c(Cl)cc(F)cc1Nc1c(-c2ccncc2OCC2CCO2)[nH]c2c1C(=O)NCC2 (single isomer, unassigned) [Example 41]
Result block: 6.35 µM

====

Tested on: Ba/F3-EGFR-insSVD
Test: Ba/F3 cell survival assay, EGFR-insSVD
Assay type: cell-based
Details: read-out: BA/F3 (insSVD) IC50; cell viability, Cell Titer-Glo, 48 h, with 10 ng/mL EGF, without IL-3
MEASUREMENT_NAME: IC50 (nM)
// units = nM; emit number, no label

Query block: Query (molecule): Cc1c(Cl)cc(F)cc1Nc1c(-c2ccncc2OCC2CCO2)[nH]c2c1C(=O)NCC2 (single isomer, unassigned) [Example 41] ; field requested: IC50
Result block: 346

Query block: Which value of IC50 has been reported for O=C1NCCc2[nH]c(-c3ccncc3OCC3CCO3)c(Nc3cccc(Cl)c3Cl)c21 (single isomer, unassigned; (-)) in the records?
Result block: 192

Query block: IC50 for COc1c(Br)cccc1Nc1c(-c2ccncc2OCC2CCO2)[nH]c2c1C(=O)NCC2 (single isomer, unassigned) [Example 35] ?
Result block: 206

Query block: IC50 lookup needed for COc1c(F)cccc1Nc1c(-c2ccncc2OCC2(C)CCO2)[nH]c2c1C(=O)NCC2 (single isomer, unassigned; (+)) , thanks.
Result block: 40.4

Query block: May I ask what IC50 has been recorded for Cc1cccc(Nc2c(-c3ccncc3OCC3OCC3(C)C)[nH]c3c2C(=O)NCC3)c1Cl (single isomer, unassigned; (+)) [Example 59] ?
Result block: 59.9

Kindly review the next molecule as well.
Query block: Would you kindly share the measured IC50 for CC1(C)COC1COc1cnccc1-c1[nH]c2c(c1Nc1cccc(Cl)c1OC(F)F)C(=O)NCC2 (single isomer, unassigned) [Example 73] ?
Result block: 92.3

====

Entries annotated with measured pIC50
Tested on: Ba/F3-EGFR-insSVD
Assay: Ba/F3 cell survival assay, EGFR-insSVD
Type: cell-based
Conditions: read-out: BA/F3 (insSVD) IC50; cell viability, Cell Titer-Glo, 48 h, with 10 ng/mL EGF, without IL-3
Value format note: pIC50 is -log10 of concentration (mol/L); just state the number.

Query block: Looking for the measured pIC50 of COc1c(Cl)cccc1Nc1c(-c2ccncc2OCC2OCC2(C)C)[nH]c2c1C(=O)NCC2 (single isomer, unassigned; (+)) [Example 50] , can you help?
Result block: 8.06

The record that follows has no pIC50 shown yet.
Query block: Consider the compound COc1c(Cl)cc(F)cc1Nc1c(-c2ccncc2OCC2(C)CCO2)[nH]c2c1C(=O)NCC2 (single isomer, unassigned) [Example 70] and give its measured pIC50.
Result block: 7.49

====

Target: human Bub1 (Homo sapiens (Human), UniProt O43683)
Sequence (O43683 704-1085): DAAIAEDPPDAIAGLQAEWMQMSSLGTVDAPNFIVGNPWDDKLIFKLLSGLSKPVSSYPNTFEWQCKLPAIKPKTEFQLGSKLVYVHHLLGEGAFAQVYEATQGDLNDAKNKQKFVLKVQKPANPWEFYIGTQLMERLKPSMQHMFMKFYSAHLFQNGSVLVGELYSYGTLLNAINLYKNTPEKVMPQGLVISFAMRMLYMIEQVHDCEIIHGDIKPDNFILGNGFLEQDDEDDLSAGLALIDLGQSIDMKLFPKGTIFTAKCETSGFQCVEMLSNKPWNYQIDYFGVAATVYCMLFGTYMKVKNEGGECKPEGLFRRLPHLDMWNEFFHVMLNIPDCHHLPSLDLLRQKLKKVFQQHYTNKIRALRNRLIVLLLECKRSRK
Assay: Bub1 high ATP kinase assay (TR-FRET)
Type: biochemical
Settings: Bub1 high ATP (2 mM) IC50, 2 mM ATP
# pIC50 annotations
FYI, pIC50 means -log10 of a concentration in mol per litre.

Solved entries (count: 2):
Query block: So what does the record say about pIC50 for COc1c(F)cccc1Nc1c(-c2ccncc2OCCC2CCO2)[nH]c2c1C(=O)NCC2 (single isomer, unassigned) [Example 45] ?
Result block: 4.90

Query block: Look up pIC50 for this compound: COc1c(Cl)cc(F)cc1Nc1c(-c2ccncc2OCC2(C)CCO2)[nH]c2c1C(=O)NCC2 (single isomer, unassigned) [Example 69]
Result block: 4.87

Now for the compound whose pIC50 we want.
Query block: Requested field: pIC50. Item: COc1c(F)cccc1Nc1c(-c2ccncc2OCC2(C)CCO2)[nH]c2c1C(=O)NCC2 (single isomer, unassigned; (-)) [Example 20]
Result block: 4.84

====

Target: human Bub1 (Homo sapiens (Human), UniProt O43683)
Assay: Bub1 high ATP kinase assay (TR-FRET)
Type: biochemical
Settings: read-out: Bub1 high ATP (2 mM) IC50; 2 mM ATP
Source text: Bub1-inhibitory activity of compounds of the present invention at a high ATP concentration was quantified employing the Bub1 TR-FRET high ATP kinase assay as described in the following paragraphs. N-terminally His6-tagged recombinant catalytic domain of human Bub1 (amino acids 704-1085), expressed in insect cells (Hi5) and purified by Ni-NTA affinity chromatography and subsequent size exclusion chromatography, was used as enzyme.
MEASUREMENT_NAME: IC50 (µM)
Numbers only; they are read as µM.

Query block: Entry Cc1c(Cl)cccc1Nc1c(-c2ccncc2OCC2(C)CCO2)[nH]c2c1C(=O)NCC2 (single isomer, unassigned; (-)) [Example 81] : reported IC50 = ?
Result block: 5.05

Query block: Looking for the measured IC50 of O=C1NCCc2[nH]c(-c3ccncc3OCC3COC3)c(Nc3cccc(Cl)c3OC(F)F)c21 , can you help?
Result block: 7.52

Now turn to the next molecule.
Query block: Requested field: IC50. Item: Cc1cccc(Nc2c(-c3ccncc3OCC3(C)CCO3)[nH]c3c2C(=O)NCC3)c1Cl (racemic) [Example 55]
Result block: 15.4
